All figures here come from patent US20250312352A1.

Molecular target: GLP-1R (Homo sapiens)
Sequence (P43220 24-463): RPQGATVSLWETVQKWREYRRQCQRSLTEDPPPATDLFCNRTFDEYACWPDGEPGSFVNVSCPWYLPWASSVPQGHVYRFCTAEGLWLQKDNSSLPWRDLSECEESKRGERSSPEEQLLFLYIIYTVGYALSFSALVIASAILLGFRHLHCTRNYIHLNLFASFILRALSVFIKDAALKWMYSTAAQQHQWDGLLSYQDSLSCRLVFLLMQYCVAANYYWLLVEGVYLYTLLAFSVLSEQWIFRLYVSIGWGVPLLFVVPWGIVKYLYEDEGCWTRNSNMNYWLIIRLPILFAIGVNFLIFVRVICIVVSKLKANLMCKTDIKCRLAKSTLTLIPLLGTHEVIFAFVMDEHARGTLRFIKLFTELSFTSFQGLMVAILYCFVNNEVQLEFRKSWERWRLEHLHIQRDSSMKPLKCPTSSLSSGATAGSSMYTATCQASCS
Test: GLP-1R activation cAMP assay (Assay 1 or Assay 2)
Details: cAMP increase in CHO cells stably expressing GLP-1R; compounds run on one of the two cAMP assays
pEC50: −log10 of the molar value.
Think of 9 as a floor: if pEC50 stands on it or above, it is Satisfied; beneath it, Not satisfied.

Example cases with answers are listed next.
### Prompt Hi, just wondering whether Cn1nncc1C#Cc1cnc(COc2cccc(-c3cc(F)c(Cc4nc5ccc(C(=O)O)cc5n4C[C@@H]4CCO4)cc3F)n2)c(F)c1 shows pEC50 of 9 or higher.
### Response Satisfied

### Prompt Hi, just wondering whether NC(=O)c1ccc(COc2cccc(-c3cc(F)c(Cc4nc5ccc(C(=O)O)cc5n4C[C@@H]4CCO4)cc3F)n2)o1 shows pEC50 of 9 or higher.
### Response Not satisfied

### Prompt Hi, just wondering whether CCOc1nnc(COc2nc(-c3cc(Cl)c(Cc4nc5c(F)cc(C(=O)O)cc5n4[C@@H]4COCC4(C)C)cc3C)ccc2F)s1 shows pEC50 of 9 or higher.
### Response Satisfied

### Prompt Hi, just wondering whether O=C(O)c1ccc2nc(Cc3cc(F)c(-c4ccc(F)c(OCc5ncc(C(F)F)s5)n4)cc3F)n(C[C@@H]3CCO3)c2c1 shows pEC50 of 9 or higher.
### Response Satisfied

### Prompt Hi, just wondering whether N#Cc1cc(COc2cccc(-c3cc(F)c(Cc4nc5ccc(C(=O)O)cc5n4C[C@@H]4CCO4)cc3F)n2)cs1 shows pEC50 of 9 or higher.
### Response Not satisfied

***
### Prompt Hi, just wondering whether O=C(O)c1ccc2nc(Cc3cc(F)c(-c4cccc(OCc5ccc(C#Cc6cn[nH]c6)nc5)n4)cc3F)n(C[C@@H]3CCO3)c2c1 shows pEC50 of 9 or higher.
### Response Satisfied

### Prompt Hi, just wondering whether O=C(O)c1ccc2nc(Cc3cc(F)c(-c4cccc(OCc5cc6n(n5)CCCC6)n4)cc3F)n(C[C@@H]3CCO3)c2c1 shows pEC50 of 9 or higher.
### Response Not satisfied

### Prompt Hi, just wondering whether Cc1nnc(COc2cccc(-c3cc(F)c(Cc4nc5ccc(C(=O)O)cc5n4[C@H]4COCC4(C)C)c(F)c3F)n2)s1 (single isomer, unassigned) [Example 281B] shows pEC50 of 9 or higher.
### Response Not satisfied

### Prompt Hi, just wondering whether Cn1cc(C#Cc2ccc(COc3cccc(-c4cc(F)c(Cc5nc6ccc(C(=O)O)cc6n5C[C@@H]5CCO5)cc4F)n3)nc2Cl)cn1 shows pEC50 of 9 or higher.
### Response Satisfied

### Prompt Hi, just wondering whether Cn1cc(C#Cc2ccc(COc3cccc(-c4cc(F)c(Cc5nc6ccc(C(=O)O)cc6n5C[C@@H]5CCO5)cc4F)n3)c(F)c2)cn1 shows pEC50 of 9 or higher.
### Response Satisfied

### Prompt Hi, just wondering whether N#Cc1cnc(COc2cccc(-c3cc(F)c(Cc4nc5ccc(C(=O)O)cc5n4C[C@@H]4CCO4)cc3F)n2)s1 shows pEC50 of 9 or higher.
### Response Satisfied

### Prompt Hi, just wondering whether Cn1nccc1COc1cccc(-c2cc(F)c(Cc3nc4ccc(C(=O)O)cc4n3C[C@@H]3CCO3)cc2F)n1 shows pEC50 of 9 or higher.
### Response Not satisfied
